outcome-measure: Kd (nM)
Write down the numeric answer in nM and omit the unit.

Q: Report value only: Kd, MIF (Homo sapiens), COCCOCCOc1ccc(N2Cc3ccc(O)cc3OC2=O)cc1
Result: 16

Q: Report value only: Kd, MIF (Homo sapiens), O=C1Oc2cc(O)ccc2CN1c1ccc(OCCN2CCOCC2)cc1
Result: 12

Q: Report value only: Kd, MIF (Homo sapiens), O=C1Oc2cc(O)ccc2CN1c1ccc(OCCOCCN2CCOCC2)cc1
Result: 23

Q: Report value only: Kd, MIF (Homo sapiens), O=C(O)CCCOc1ccc(N2Cc3ccc(O)cc3OC2=O)cc1
Result: 22

The measurements presented in this section are drawn from patent US20230399303A1.
